TARGET_UNDER_TEST: T1, human SIRPβL/SIRPβ1v3 extracellular domain + His-tag (NP_001129316.1) (human, UniProt Q5TFQ8 30-371)
T1 construct: also called hSIRPβ1v3; HuSIRPβ1v3
PROTOCOL_TEXT: SPR, Ab captured, ECD-His analyte
PROPERTY_MEASURED: pKd
The value called pKd is obtained by taking minus log10 of the concentration in mol/L.

The binder listed as Antibody E5 (antibody, human IgG1, kappa, L234A L235A, V domains shown) VH: QVQLQESGPGLVRPSETLSLTCTVSGGSIRNYYWSWIRQPPGKGLEWIGFIYYNGRTFYNPSLKSRVTISLDKSKNQFSLKMTSVTAADTAVYYCARVRAYSGIGLDGTDVWGQGTTVTVSS VL: DIVMTQSPLSLPVTPGEPASISCKSSQSLLYSNGYAYLDWYLQRPGQSPQLLIYQGSNRASGVPDRFSGSGSGTDFTLKISRVEAEDVGVFYCMQALQTPLTFGGGTKVEIKR has a reported pKd of 8.57

# pKd of Antibody E21 (antibody, human IgG1, kappa, L234A L235A, V domains shown) VH: QVQLQESGPGLVRPSETLSLTCTVSGGSIRNYYWSWIRQPPGKGLEWIGFIYYTGRTFYNPSLKSRVTISLDMSKNQFSLKMTSVTAADTAVYYCARVRAYSGIGLDGTDVWGQGTTVTVSS VL: DIVMTQSPLSLPVTPGEPASISCKSSQSLLYSNAYNYLDWYLQRPGQSPQLLIYLGSNRASGVPDRFSGSGSGTDFTLKISRVEAEDVGVYYCMQALQTPLTFGGGTKVEIKR = 8.05

Looking up Antibody E2 (antibody, human IgG1, kappa, L234A L235A, V domains shown) VH: QVQLQESGPGLVRPSETLSLTCTVSGGSIRNYYWSWIRQPPGKGLEWIGFIYYNGRTFYNPSLKSRVTISLDMSINQFSLKMTSVTAADTAVYYCARVRAYSGIGLDGTDVWGQGTTVTVSS VL: DIVMTQSPLSLPVTPGEPASISCKSSQSLLYSNGYAYLDWYLQRPGQSPQLLIYLGSNRASGVPDRFSGSGSGTDFTLKISRVEAEDVGVYYCMQALQTPLTFGGGTKVEIKR , I see its pKd listed as 8.71

The binder identified as Antibody E7 (antibody, human IgG1, kappa, L234A L235A, V domains shown) VH: QVQLQESGPGLVRPSETLSLTCTVSGGSIRNYYWSWIRQPPGKGLEWIGFIYYNGRTFYNPSLKSRVTISLDTSKNQFSLKMTSVTAADTAVYYCARVRAYSGIGLDGTDVWGQGTTVTVSS VL: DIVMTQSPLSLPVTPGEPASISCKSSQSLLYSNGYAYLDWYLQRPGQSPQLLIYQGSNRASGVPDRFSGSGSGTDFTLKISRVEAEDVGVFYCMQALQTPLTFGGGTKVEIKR registered its pKd at 8.66
